Test system: IM-95 (Gastric Carcinoma)
test: combination Emax (second highest fraction inhibited in the dose matrix, 72 h); higher = more inhibition; extreme values may be limits of the assay
outcomeMeasure: combination Emax
Give only the figure.

CC1(C)CCC(CN2CCN(c3ccc(C(=O)NS(=O)(=O)c4ccc(NCC5CCOCC5)c([N+](=O)[O-])c4)c(Oc4cnc5[nH]ccc5c4)c3)CC2)=C(c2ccc(Cl)cc2)C1 [Venetoclax] + C[C@@H]1COCCN1C2=NC(=NC(=C2)C3(CC3)[S@](=N)(=O)C)C4=C5C=CNC5=NC=C4 [AZD6738] (first compound max 1 µM, 7x7, partner max 10 µM) :: 0.169
C=CCn1c(=O)c2cnc(Nc3ccc(N4CCN(C)CC4)cc3)nc2n1-c1cccc(C(C)(C)O)n1 [AZD1775] + C[C@@H]1COCCN1C2=NC(=NC(=C2)C3(CC3)[S@](=N)(=O)C)C4=C5C=CNC5=NC=C4 [AZD6738] (first compound max 1 µM, partner max 10 µM) :: 0.761

// below: combination Emax requested for another compound
Can you look up the measured combination Emax of COc1nnc2ccc(N3CCC(c4ccc(OCCN5CCN(C)C(=O)[C@H]5C)cc4)CC3)nn12 [AZD5153] + Cn1cnc2c(F)c(Nc3ccc(Br)cc3Cl)c(C(=O)NOCCO)cc21 [Selumetinib] (first compound max 1 µM, 7x7, partner max 10 µM) for me?
0.564

====

Test system: ST486 (Burkitt's Lymphoma)
test: combination Emax (second highest fraction inhibited in the dose matrix, 72 h); higher = more inhibition; extreme values may be limits of the assay
Binned combination Emax; ranges: lo (below 0.8), mid (0.8 to below 0.9), hi (0.9 or more)

Observe how each entry below is paired with its result.
O=C(c1cc(Cc2n[nH]c(=O)c3ccccc23)ccc1F)N1CCN(C(=O)C2CC2)CC1 [Olaparib] + CN(CC[C@H](CSC1=CC=CC=C1)NC2=C(C=C(C=C2)S(=O)(=O)NC(=O)C3=CC=C(C=C3)N4CCC(CC4)[C@H](C5=CC=CC=C5C6=CC=C(C=C6)Cl)O)S(=O)(=O)C(F)(F)F)CCO [AZD4320] (first compound max 10 µM, 7x7, partner max 1 µM) :: lo
COc1cccc(OCCCN)c1-c1cc(Nc2cnc(C#N)cn2)n[nH]1 [Prexasertib] + C=CCn1c(=O)c2cnc(Nc3ccc(N4CCN(C)CC4)cc3)nc2n1-c1cccc(C(C)(C)O)n1 [AZD1775] (first compound max 1 µM, partner max 1 µM) :: hi
NC1(C(=O)N[C@@H](CCO)c2ccc(Cl)cc2)CCN(c2ncnc3[nH]ccc23)CC1 [Capivasertib] + CC(=O)c1c(C)c2cnc(Nc3ccc(N4CCNCC4)cn3)nc2n(C2CCCC2)c1=O [Palbociclib] (first compound max 10 µM, 7x7, partner max 10 µM) :: lo

Could you place CN(C)CCCOc1ccc(-c2ccc3ncc4c(c3c2)n(C2CCOCC2)c(=O)n4C)cn1 [AZD0156] + O=C(c1cc(Cc2n[nH]c(=O)c3ccccc23)ccc1F)N1CCN(C(=O)C2CC2)CC1 [Olaparib] (first compound max 3 µM, partner max 3 µM) in its proper category? Many thanks.
lo

====

A collection of compounds and their measured combination Emax
Test system: SK-GT-2 (Gastric Carcinoma)
test: combination Emax (second highest fraction inhibited in the dose matrix, 72 h); higher = more inhibition; extreme values may be limits of the assay
Give only the figure.

CCN(CCO)CCCOc1ccc2c(Nc3cc(CC(=O)Nc4cccc(F)c4)[nH]n3)ncnc2c1 [AZD2811] + C=CCn1c(=O)c2cnc(Nc3ccc(N4CCN(C)CC4)cc3)nc2n1-c1cccc(C(C)(C)O)n1 [AZD1775] (first compound max 1 µM, partner max 1 µM) :: 0.769

// below: combination Emax requested for another compound
Can you look up the measured combination Emax of CC1(C)CCC(CN2CCN(c3ccc(C(=O)NS(=O)(=O)c4ccc(NCC5CCOCC5)c([N+](=O)[O-])c4)c(Oc4cnc5[nH]ccc5c4)c3)CC2)=C(c2ccc(Cl)cc2)C1 [Venetoclax] + CCN(CCO)CCCOc1ccc2c(Nc3cc(CC(=O)Nc4cccc(F)c4)[nH]n3)ncnc2c1 [AZD2811] (first compound max 1 µM, 7x7, partner max 1 µM) for me?
0.155
